Target: Transient receptor potential cation channel subfamily V member 1 (Homo sapiens, UniProt Q8NER1)
Sequence (Q8NER1 whole entry): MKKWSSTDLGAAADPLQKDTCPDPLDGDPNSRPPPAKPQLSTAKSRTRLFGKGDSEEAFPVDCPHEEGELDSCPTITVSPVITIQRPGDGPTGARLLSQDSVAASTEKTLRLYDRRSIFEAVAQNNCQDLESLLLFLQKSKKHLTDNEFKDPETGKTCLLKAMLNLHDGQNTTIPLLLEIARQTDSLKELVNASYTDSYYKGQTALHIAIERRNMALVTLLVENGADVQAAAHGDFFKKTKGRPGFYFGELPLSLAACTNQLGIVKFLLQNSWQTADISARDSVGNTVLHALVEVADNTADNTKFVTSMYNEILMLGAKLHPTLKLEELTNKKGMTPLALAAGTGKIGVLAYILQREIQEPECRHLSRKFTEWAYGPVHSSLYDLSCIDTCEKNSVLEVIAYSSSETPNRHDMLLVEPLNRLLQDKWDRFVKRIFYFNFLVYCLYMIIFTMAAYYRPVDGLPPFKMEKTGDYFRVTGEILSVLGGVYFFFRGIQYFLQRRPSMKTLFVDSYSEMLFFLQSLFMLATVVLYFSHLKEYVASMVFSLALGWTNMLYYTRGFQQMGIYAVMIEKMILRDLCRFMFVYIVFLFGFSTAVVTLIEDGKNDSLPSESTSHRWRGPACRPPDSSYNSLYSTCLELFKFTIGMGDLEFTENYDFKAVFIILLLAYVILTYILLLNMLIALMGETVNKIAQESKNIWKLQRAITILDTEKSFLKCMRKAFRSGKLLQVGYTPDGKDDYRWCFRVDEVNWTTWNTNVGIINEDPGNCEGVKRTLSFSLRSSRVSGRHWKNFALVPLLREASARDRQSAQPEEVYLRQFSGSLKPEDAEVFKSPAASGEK

- SMILES_STRING: "CN(C)C1(Cc2ccccc2)CCN(c2cc(C(F)(F)F)ccc2CNC(=O)Nc2cccc3ncccc23)CC1"
  UNITS_OF_MEASURE: "nM"
  Ki: 32

----------
Target: Transient receptor potential cation channel subfamily V member 1 (Homo sapiens, UniProt Q8NER1)
Assay: Antagonist activity at human TRPV1 assessed as inhibition of AITC-induced increase in intracellular Ca2+ level
Format: cell-based
ASSAY_ENDPOINT: IC50

- SMILES_STRING: "O=C1C[C@@H](c2ccc(O[C@@H]3O[C@H](CO)[C@@H](O)[C@H](O)[C@H]3O)cc2)Oc2cc(O)ccc21"
  REPORTED: "16.2 µM"

----------
Target: UniProt O35433
Assay: Inhibition of rat TRPV1 assessed as inhibition of capsaicin-induced increase in intracellular Ca2+ level
Format: cell-based
pIC50: −log10 of the molar value.
ASSAY_ENDPOINT: pIC50

- SMILES_STRING: "COc1cc(/C=C/C(=O)NS(=O)(=O)c2ccc(-n3nc(C(F)(F)F)cc3-c3ccc(C)cc3)cc2)ccc1O"
  REPORTED: 6.85

----------
Biological target: UniProtKB Q8NER1
Assay: Antagonist activity at capsaicin-induced human TRPV1 activation
ASSAY_ENDPOINT: IC50 (nM)

- SMILES_STRING: "Cc1cc(C)nc(NC(=O)N2CCN(Cc3ccccc3N3CCCC3)CC2)c1"
  TARGET_OR_SYSTEM: "UniProtKB Q8NER1"
  ASSAY_ENDPOINT: "IC50"
  REPORTED: 9.8

----------
Target: Transient receptor potential cation channel subfamily V member 1 (Rattus norvegicus)
Sequence (O35433 whole entry): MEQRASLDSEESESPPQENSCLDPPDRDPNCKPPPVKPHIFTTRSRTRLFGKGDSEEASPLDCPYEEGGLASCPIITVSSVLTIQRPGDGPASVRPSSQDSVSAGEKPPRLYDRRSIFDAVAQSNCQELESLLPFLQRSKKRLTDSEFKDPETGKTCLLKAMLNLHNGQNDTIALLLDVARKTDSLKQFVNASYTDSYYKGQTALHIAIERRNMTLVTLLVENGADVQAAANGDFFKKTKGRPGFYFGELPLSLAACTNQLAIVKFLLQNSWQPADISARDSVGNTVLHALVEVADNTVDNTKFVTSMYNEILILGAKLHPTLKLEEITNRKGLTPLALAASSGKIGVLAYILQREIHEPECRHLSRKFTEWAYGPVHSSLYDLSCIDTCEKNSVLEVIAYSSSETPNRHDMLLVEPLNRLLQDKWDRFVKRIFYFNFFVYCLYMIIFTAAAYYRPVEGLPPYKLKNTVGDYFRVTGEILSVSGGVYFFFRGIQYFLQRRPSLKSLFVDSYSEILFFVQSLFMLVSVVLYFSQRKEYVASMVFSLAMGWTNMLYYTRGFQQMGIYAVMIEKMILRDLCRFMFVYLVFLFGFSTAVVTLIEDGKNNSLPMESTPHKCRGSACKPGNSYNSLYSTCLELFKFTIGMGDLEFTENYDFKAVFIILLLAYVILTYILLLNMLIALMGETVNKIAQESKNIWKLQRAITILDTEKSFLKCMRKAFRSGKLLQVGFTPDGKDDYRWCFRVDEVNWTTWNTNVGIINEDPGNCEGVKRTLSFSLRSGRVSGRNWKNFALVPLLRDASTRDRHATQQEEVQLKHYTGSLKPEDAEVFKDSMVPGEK
Experiment: Antagonist activity at rat TRPV1 expressed in CHO cells assessed as inhibition of pH-induced increase in intracellular Ca2+ level by fluorescence based analysis
Assay type: cell-based
ASSAY_ENDPOINT: IC50 (nM)

- SMILES_STRING: "O=C1/C(=N\\Nc2ccccc2)C(C(F)(F)C(F)(F)F)=NN1c1ccccc1"
  REPORTED: 140

----------
Biological target: Transient receptor potential cation channel subfamily V member 1 (Homo sapiens)
Test: Antagonist activity at human TRPV1 expressed in HEK293 cells assessed as inhibition of NADA-induced increase in intracellular Ca2+ level incubated for 2 mins by scintillation counter analysis
Type: cell-based
ASSAY_ENDPOINT: IC50 (nM)

- COMPOUND: "CCC1(CC)CC(NC(=O)Nc2cccc3c(C)nccc23)c2cc(F)ccc2O1 (stereo unspecified)"
  REPORTED: 7

----------
Target: Transient receptor potential cation channel subfamily V member 1 (Homo sapiens, UniProt Q8NER1)
Test: Antagonist activity at human TRPV1
pIC50: −log10 of the molar value.

- SMILES_STRING: "CN(C)C1(Cc2ccccc2)CCN(c2cc(C(F)(F)F)ccc2CNC(=O)Nc2cccc3ncccc23)CC1"
  pIC50: 7.97

----------
Molecular target: Transient receptor potential cation channel subfamily V member 1 (Rattus norvegicus)
Test: Antagonist activity at rat TRPV1 assessed as inhibition of pH-induced increase in intracellular Ca2+ level
Format: cell-based
pIC50: −log10 of the molar value.
ASSAY_ENDPOINT: pIC50

- SMILES_STRING: "O=C(Nc1ccccc1Br)N[C@@H]1CCN(c2ccc(C(F)(F)F)cn2)C1"
  REPORTED: 8.22
